Where these numbers come from: PubChem BioAssay AID1963431

# viability, T/C per entry
system: Rh18 complex spheroid viability, percent test/control; assay: Anticancer human tumor Rh18 cell line growth inhibition [Asc]; conditions: second compound 1 µM; first compound 0.0949 µM; stronger effect = lower value;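 also: spheroids exposed to compound for 7 days; 100% = DMSO vehicle control wells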
measure: viability, T/C

compound="CCN1C(C(=O)NC23CCC(C(=O)O)(CC2)CC3)C(c2cccc(Cl)c2F)C2(C(=O)Nc3cc(Cl)ccc32)C12CCCCC2 (configuration not stated) + CNC(C)C(=O)NC1CN(S(=O)(=O)c2cccc(S(=O)(=O)N3CCC4CCC(C(=O)NC(c5ccccc5)c5ccccc5)N4C(=O)C(NC(=O)C(C)NC)C3)c2)CCC2CCC(C(=O)NC(c3ccccc3)c3ccccc3)N2C1=O" measure="viability, T/C" obsvalue=15.9%
compound="NC(=O)C(=Cn1cnc(-c2cc(C(F)(F)F)cc(C(F)(F)F)c2)n1)c1cncnc1 + Cc1c(S(C)(=O)=O)c(-c2cc(F)cc(N3CCN(c4ccc(NS(=O)(=O)c5ccc(NC(CCN6CCC(C(=O)OCCCP(=O)(O)O)CC6)CSc6ccccc6)c(S(=O)(=O)C(F)(F)F)c5)cc4)CC3)c2)c(-c2ccc(Cl)cc2)n1C(C)C" measure="viability, T/C" obsvalue=7.03%

###

test system: Rh18 complex spheroid viability, percent test/control; assay: Anticancer human tumor Rh18 cell line growth inhibition [Asc]; settings: second compound 1 µM; first compound 3.16 µM; active means viability on the fitted dose curve at most 10% of control; inactive means the rest;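 also: spheroids exposed to compound for 7 days; 100% = DMSO vehicle control wells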
Possible outcomes: active, inactive

compound="C#Cc1c(F)ccc2cc(O)cc(-c3ncc4c(N5CC6CCC(C5)N6)nc(OCC56CCCN5CC(F)C6)nc4c3F)c12 (stereo not drawn) + CNC(C)C(=O)NC1CN(S(=O)(=O)c2cccc(S(=O)(=O)N3CCC4CCC(C(=O)NC(c5ccccc5)c5ccccc5)N4C(=O)C(NC(=O)C(C)NC)C3)c2)CCC2CCC(C(=O)NC(c3ccccc3)c3ccccc3)N2C1=O" targetortestsystem="Rh18 complex spheroid viability, percent test/control" categorylabel=inactive
compound="C=CC(=O)N1CCN(c2nc(=O)n(-c3c(C)ccnc3C(C)C)c3nc(-c4c(O)cccc4F)c(F)cc23)C(C)C1 (stereo not drawn) + CNC(C)C(=O)NC1CN(S(=O)(=O)c2cccc(S(=O)(=O)N3CCC4CCC(C(=O)NC(c5ccccc5)c5ccccc5)N4C(=O)C(NC(=O)C(C)NC)C3)c2)CCC2CCC(C(=O)NC(c3ccccc3)c3ccccc3)N2C1=O" targetortestsystem="Rh18 complex spheroid viability, percent test/control" categorylabel=inactive
compound="C=C(F)C(=O)N1CCN(c2nc(OCC3CCCN3C)nc3c2CCN(c2cccc4cccc(Cl)c24)C3)CC1CC#N (stereo not drawn) + Cc1c(S(C)(=O)=O)c(-c2cc(F)cc(N3CCN(c4ccc(NS(=O)(=O)c5ccc(NC(CCN6CCC(C(=O)OCCCP(=O)(O)O)CC6)CSc6ccccc6)c(S(=O)(=O)C(F)(F)F)c5)cc4)CC3)c2)c(-c2ccc(Cl)cc2)n1C(C)C" targetortestsystem="Rh18 complex spheroid viability, percent test/control" categorylabel=active

###

tested on: Rh18 complex spheroid viability, percent test/control; experiment: Anticancer human tumor Rh18 cell line growth inhibition [Asc]; details: second compound 0.316 µM; first compound 0.03 µM; stronger effect = lower value;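 also: spheroids exposed to compound for 7 days; 100% = DMSO vehicle control wells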
measure: viability, T/C

compound="Cc1nc(N2CCC3(CC2)COC(C)C3N)c(CO)nc1Sc1ccnc(N)c1Cl (configuration not stated) + CNC(C)C(=O)NC1CN(S(=O)(=O)c2cccc(S(=O)(=O)N3CCC4CCC(C(=O)NC(c5ccccc5)c5ccccc5)N4C(=O)C(NC(=O)C(C)NC)C3)c2)CCC2CCC(C(=O)NC(c3ccccc3)c3ccccc3)N2C1=O" obsvalue=24.1%
compound="NC(=O)C(=Cn1cnc(-c2cc(C(F)(F)F)cc(C(F)(F)F)c2)n1)c1cncnc1 + CNC(C)C(=O)NC1CN(S(=O)(=O)c2cccc(S(=O)(=O)N3CCC4CCC(C(=O)NC(c5ccccc5)c5ccccc5)N4C(=O)C(NC(=O)C(C)NC)C3)c2)CCC2CCC(C(=O)NC(c3ccccc3)c3ccccc3)N2C1=O" obsvalue=29.7%
